Origin of values: PubChem BioAssay AID748

The entries below are paired with their reported displacement.
Target: Bcl-2-like protein 10 (Homo sapiens) (UniProt Q9HD36)
Test: displacers of TR3 peptide from Bcl-B, primary screen, selectivity assay for Bfl-1 inhibitor project, biochemical, fluorescence polarization, FITC-TR3 peptide (AID 748);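 further: plate controls were wells without compound for no effect and wells lacking Bcl-B protein for full effect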
Conditions: FP displacement of FITC-TR3 peptide from Bcl-B; at 20 µM; hits give high values
In all, about 96,000 compounds went through this assay and about 100 (0.1%) were called active. The list comes from a sample in which actives are over-represented; it also holds close analogues and randomly drawn compounds. Measured potencies and affinities stand elsewhere.
The answer is to be given in %; state only the numeric part.

Recorded displacement, per entry:
Compound: COc1ccc(OCCC(=O)OCC(=O)NCc2ccco2)cc1
displacement [%]: 16.1
//
Compound: CC(=O)Nc1ccc(S(=O)(=O)n2nc(-c3ccc(C)cc3)nc2N)cc1
displacement [%]: -2.3

q: Dear colleague, please send me the reported displacement for `CSc1nc(C)cc(NC(N)=O)n1` when you can.
a: -7.4

q: Dear colleague, please send me the reported displacement for `O=C(O)CN(c1ccc(F)cc1)S(=O)(=O)c1ccc2c(c1)OCCO2` when you can.
a: -1.7

q: Dear colleague, please send me the reported displacement for `CCc1cc(C(=O)Cc2cnn(-c3ccccc3)c2)c(O)cc1O` when you can.
a: -5.9

q: Dear colleague, please send me the reported displacement for `COc1ccc(N2Cc3cccc(C(=O)N4CCN(C(=O)c5ccco5)CC4)c3C2=O)cc1` when you can.
a: 36.1

q: Dear colleague, please send me the reported displacement for `COc1cc(/C=C(/C#N)c2ccc(C)cc2)ccc1Oc1ccc([N+](=O)[O-])cn1` when you can.
a: -0.7

----------
The entries below are paired with their reported displacement.
Target: Bcl-2-like protein 10 (Homo sapiens)
Test: displacers of TR3 peptide from Bcl-B, primary screen, selectivity assay for Bfl-1 inhibitor project, biochemical, fluorescence polarization, FITC-TR3 peptide (AID 748)
Details: FP displacement of FITC-TR3 peptide from Bcl-B; at 20 µM; hits give high values
Among all 96,000 compounds or so, about 100 (0.1%) were called active. For the sample, actives were picked, then their nearest neighbours and some compounds at random. Results with a measured potency or affinity are listed apart.
The answer is to be given in %; state only the numeric part.

Molecule: COc1ccc(C(C)=O)c2c(O)cccc12
Unit Descriptor: %
displacement: -7
--
Molecule: COc1ccc2c3c(cccc13)N(C)N=C2C
Unit Descriptor: %
displacement: 20.3

Proceed to the following item.
q: Dear colleague, please send me the reported displacement for `CCOc1cc(/C=C2\SC(=S)N(Nc3ccccc3)C2=O)ccc1O` when you can.
a: -87.6

----------
Biological target: Bcl-2-like protein 10 (Homo sapiens)
Test: displacers of TR3 peptide from Bcl-B, primary screen, selectivity assay for Bfl-1 inhibitor project, biochemical, fluorescence polarization, FITC-TR3 peptide (AID 748);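 further: plate controls were wells without compound for no effect and wells lacking Bcl-B protein for full effect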
Settings: FP displacement of FITC-TR3 peptide from Bcl-B; at 20 µM; hits give high values
About 100 (0.1%) of roughly 96,000 compounds were called active. For the sample, actives were picked, then their nearest neighbours and some compounds at random. Results with a measured potency or affinity are listed apart.
Rule: displacement of 10% or more gives Y; anything lower gives N.

q: Quick check, displacement >= 10%? `Cc1cccc(OCCCC(=O)Nc2ccc(N3CCCCC3)cc2)c1C`
a: N

q: Quick check, displacement >= 10%? `c1coc(-c2nc3ccccc3nc2-c2ccco2)c1`
a: Y

q: Quick check, displacement >= 10%? CCOC(=O)c1[nH]c2c(c1C)C(=O)CC(c1ccco1)C2 (centres undefined)
a: Y

----------
Target: Bcl-2-like protein 10 (Homo sapiens)
Test: displacers of TR3 peptide from Bcl-B, primary screen, selectivity assay for Bfl-1 inhibitor project, biochemical, fluorescence polarization, FITC-TR3 peptide (AID 748);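 further: plate controls were wells without compound for no effect and wells lacking Bcl-B protein for full effect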
Conditions: FP displacement of FITC-TR3 peptide from Bcl-B; at 20 µM; hits give high values
In all, about 96,000 compounds went through this assay and about 100 (0.1%) were called active. This excerpt belongs to a sample that is enriched for actives. Results with a measured potency or affinity are listed apart.
The entries below are paired with their reported displacement.
The answer is to be given in %; state only the numeric part.

Compound: Cc1cc(C)cc(CC2CC(=O)N(c3ccc(Cl)cn3)C2=O)c1 (configuration not stated)
displacement, %: -1

Compound: Cc1ccc(S(=O)(=O)N2CCN(C3CCN(Cc4ccccc4)CC3)CC2)cc1
displacement, %: 6.6

Compound: O=C(NCc1ccco1)c1cccs1
displacement, %: -12.3

Compound: O=S(=O)(c1ccc(S(=O)(=O)N2CCCN(Cc3ccccc3)C2)cc1)N1CCCCCC1
displacement, %: 0.8

Compound: O=C(CCN1CCc2ccccc2CC1)c1ccc2c(c1)OCCO2
displacement, %: 19.8

Compound: CCOc1cc(C(=O)OCC(=O)NCc2ccco2)cc(OCC)c1OCC
displacement, %: 33.3

q: Dear colleague, please send me the reported displacement for `CCOC(=O)c1[nH]c(C(=O)O)c(CCN(CC)CC)c1C` when you can.
a: 0.1

q: Dear colleague, please send me the reported displacement for `CCOC(=O)c1ccc(NC(=O)CSc2nnc(CNC(=O)c3ccccc3F)o2)cc1` when you can.
a: 0

q: Dear colleague, please send me the reported displacement for `COc1ccc(NC(=O)C2CCN(C(=O)c3ccc(OC)cc3)CC2)cc1` when you can.
a: 3.5

q: Dear colleague, please send me the reported displacement for `O=C(CCCN1C(=O)CCC1=O)Nc1ccccc1F` when you can.
a: 38.1

q: Dear colleague, please send me the reported displacement for `COC(=O)c1ccc(Oc2c(C(F)(F)F)oc3c(CN4CCN(C)CC4)c(O)ccc3c2=O)cc1` when you can.
a: 4.9

q: Dear colleague, please send me the reported displacement for `Cc1ccc(O)c(C(=O)c2cnn(-c3ccccc3)c2)c1` when you can.
a: -8.5

----------
Molecular target: Bcl-2-like protein 10 (Homo sapiens) (UniProt Q9HD36)
Test: displacers of TR3 peptide from Bcl-B, primary screen, selectivity assay for Bfl-1 inhibitor project, biochemical, fluorescence polarization, FITC-TR3 peptide (AID 748);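 further: plate controls were wells without compound for no effect and wells lacking Bcl-B protein for full effect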
Conditions: FP displacement of FITC-TR3 peptide from Bcl-B; at 20 µM; hits give high values
About 100 (0.1%) of roughly 96,000 compounds were called active. The entries come from a sample that favours actives as a whole. Entries with a potency or affinity are not part of this list.
Attribute Measured: displacement (%)
The answer is to be given in %; state only the numeric part.

Recorded displacement, per entry:
Molecule: Cc1cccc(OCC(=O)Nc2ccc(N3CCN(S(C)(=O)=O)CC3)cc2)c1C
Target Under Test: Bcl-2-like protein 10 (Homo sapiens) (UniProt Q9HD36)
displacement, %: -12.3

Molecule: O=c1[nH]c(NC2CCCCC2)nnc1Cc1ccccc1
Target Under Test: Bcl-2-like protein 10 (Homo sapiens) (UniProt Q9HD36)
displacement, %: -7

Molecule: CCOC(=O)C1CCN(C(=O)Nc2ccc3nc(-c4ccco4)c(-c4ccco4)nc3c2)CC1
Target Under Test: Bcl-2-like protein 10 (Homo sapiens) (UniProt Q9HD36)
displacement, %: 95.6

Molecule: CCS(=O)(=O)C(=C1NCCO1)S(=O)(=O)CC
Target Under Test: Bcl-2-like protein 10 (Homo sapiens) (UniProt Q9HD36)
displacement, %: 1.6

Molecule: O=C(Nc1cccc(C(F)(F)F)c1)c1ccc2nc(-c3ccco3)c(-c3ccco3)nc2c1
Target Under Test: Bcl-2-like protein 10 (Homo sapiens) (UniProt Q9HD36)
displacement, %: 19.6

Proceed to the following item.
q: Dear colleague, please send me the reported displacement for `Nn1c(SCc2ccccc2)nnc1-c1ccco1` when you can.
a: -4.8
